Where do these numbers come from? They come from ChEMBL document CHEMBL2062525.

// reported LC50 (concentration killing 50% of starting cells) per item
# experiment notes: Cytotoxicity against human ovarian cancer cells after 48 hrs
# Type: functional
# assay setup: Cancer cell lines
metric name: LC50 (concentration killing 50% of starting cells) (µM)

molecule | result unit | number
O=C1Nc2ccccc2/C1=C\c1c(-c2ccccn2)nc2sccn12 | µM | 91.2
COc1nc2sccn2c1/C=C1/C(=O)Nc2cc(Cl)ccc21 | µM | 89.1
O=C1Nc2cc(Cl)ccc2C1=Cc1c(-c2ccccn2)nc2sccn12 (mixture of isomers) | µM | 36.3
COc1nc2sccn2c1/C=C1/C(=O)Nc2cccc(Cl)c21 | µM | 97.7
O=C1Nc2ccc(Cl)cc2C1=Cc1c(-c2ccccn2)nc2sccn12 (mixture of isomers) | µM | 50.1
Cc1nn2c(/C=C3/C(=O)Nc4c3ccc3ccccc43)c(C)nc2s1 | µM | 56.2
Cc1cn2c(/C=C3/C(=O)Nc4c3ccc3ccccc43)c(C)nc2s1 | µM | 74.1
COc1ccc2c(c1)/C(=C\c1c(-c3ccccn3)nc3sccn13)C(=O)N2 | µM | 17
